Ref: paper PMC8123576

# Procedure Text: Cytotoxicity assay (CellTiter 96 AQueous One) on HFL1
# Assay type: cell-based, human
# Run Parameters: human, HFL1 normal lung cells; HFL1, 24 h, 1 µM; dose 0 = 100.00; read-out: Growth inhibition data
Value Kind: viability at 24 h, 1 µM (%)
Answers are plain numbers, in %.

Q: Quick check: viability at 24 h, 1 µM of CC(=NNC(N)=S)c1cccs1 [2-actpTS, 2-acetylthiophenethiosemicarbazone] ?
Ans: 100

----------
# Procedure Text: Cytotoxicity assay (CellTiter 96 AQueous One) on Crl1790
# Format: cell-based, human
# Run Parameters: human, Crl1790 (CCD 841 CoN) normal colon cells; Crl1790, 24 h, 5 µM; dose 0 = 100.00; read-out: Growth inhibition data
# Experimental: The best antifungal and/or antiaflatoxigenic compounds were tested to determine their cytotoxic activity against human normal cell lines deriving from lung (HFL1, ATCC and CCL-153), skin (Hs27, ATCC, CRL1634) and colon (Crl1790, ATCC, CCD 841 CoN) and a cell line deriving from a hematological tumor (U937, ATCC and CRL-3253). […] Compound cytotoxicity was determined using CellTiter 96® AQueous One Solution Cell Proliferation Assay (Promega Corporation, Madison, WI, USA). […]
Value Kind: viability at 24 h, 5 µM (%)
Answers are plain numbers, in %.

Q: Quick check: viability at 24 h, 5 µM of CC(=NNC(N)=S)c1cccs1 [2-actpTS, 2-acetylthiophenethiosemicarbazone] ?
Ans: 88.4
